System: P388 leukemia ip, CD2F1 mice, survival T/C
Test: NCI In Vivo Anticancer Drug Screen. Data for tumor model P388 Leukemia (intraperitoneal) in CD2F1 (CDF1) mice
Conditions: endpoint: median survival time; dose: 120.0 mg/kg/injection; schedule: Q01DX005 (ip); vehicle: saline with Tween-80; higher = longer survival
Inconclusive results and toxic doses are left out.
For each of the molecules below, state its T/C.

## Task # get_value(readout='T/C', item= OC1(O)CCC1(O)OCCBr (stereo not drawn) )
## Result 108 % of control

## Task Return reported T/C; argument: `Cn1c(N2CCOCC2)cc2nc3ccccc3n2c1=O`
## Result 98 % of control

## Task Give its T/C value. Item: `S=c1o[nH]c(-c2ccccc2)c1C=Nc1ccccc1`
## Result 93 % of control

## Task Given the molecule `Cc1sc2ccccc2c(=O)c1CCl` , what is its reported T/C?
## Result 104 % of control

## Task Requested field: T/C. Item: `CSc1nnc(CCC(=O)Nc2c(C)cccc2C(C)(C)C)o1`
## Result 99 % of control

## Task Report T/C for `Nc1nnc(/C=C/c2ccc(Cl)c(Cl)c2)o1` please.
## Result 103 % of control

## Task Entry O=C(/C=C/c1ccccc1)NC1C=Nc2ccc(Cl)cc2NC1=O (stereo not drawn) : reported T/C = ?
## Result 95 % of control

## Task For the molecule shown here, `COC(=O)c1nnn(-c2ccc(C)c(C)c2)c1N` , give the reported T/C.
## Result 93 % of control

## Task Requested read-out: T/C. Entry: `COC(=O)c1c2csc3ccccc3n-2c(=O)c1C`
## Result 101 % of control

## Task T/C lookup needed for `CC(C)c1nc(C=O)c(C=O)n1Cc1ccccc1` , thanks.
## Result 92 % of control

## Task Field request: T/C | item: `CSc1nc(N)c(-c2ccc([N+](=O)[O-])cc2)s1`
## Result 97 % of control

## Task Name the reported T/C value associated with the molecule `N=Cc1cc([N+](=O)[O-])ccc1O`
## Result 104 % of control

## Task Quick check: T/C of O=C(O)C(c1ccccc1)c1cccc(C(C(=O)O)c2ccccc2)n1 (stereo not drawn) ?
## Result 100 % of control

====

Record form. Attribute: T/C. Fill in for each entry.
System: P388 leukemia ip, CD2F1 mice, survival T/C
Assay: NCI In Vivo Anticancer Drug Screen. Data for tumor model P388 Leukemia (intraperitoneal) in CD2F1 (CDF1) mice
Details: endpoint: median survival time; dose: 50.0 mg/kg/injection; schedule: Q01DX009 (ip); vehicle: saline with Tween-80; higher = longer survival
Inconclusive results and toxic doses are left out.

## Task Entry OCC1OC(n2cnc3cc(Cl)c(Cl)cc32)C(O)C1O (stereo not given) has what T/C?
## Result 106 % of control

## Task Dear colleague, I am looking for the recorded T/C of the following compound: `O=[N+]([O-])c1cc2ccccc2c(O)c1O`
## Result 118 % of control

## Task # query: T/C of entry COC1/C=C/OC2(C)Oc3c(C)c(O)c4c(O)c(c(/C=N/N5CC(C)N(C(=O)c6ccccc6)C(C)C5)c(O)c4c3C2=O)NC(=O)C(C)=C/C=C/C(C)C(O)C(C)C(O)C(C)C(OC(C)=O)C1C (stereo not given)
## Result 118 % of control

## Task So what's the measured T/C for this one? `Cc1ccc(S(=O)(=O)NC(=O)Nc2ncn[nH]2)cc1`
## Result 99 % of control

## Task Form field: reported T/C of CN1CCS(=O)(=O)C2CCCCC2C1=O (stereo not given)
## Result 96 % of control

## Task Given the entry `Cc1ccc(N=C2N=C(Nc3ccc(C)cn3)c3ccccc32)nc1` , report its measured T/C.
## Result 92 % of control

## Task T/C lookup needed for `COc1cc(Br)cc(C(=O)O)c1OC` , thanks.
## Result 93 % of control

## Task Bench note: what T/C did `CC(C)(C)N=C(CCN1CCN(c2ccccc2)CC1)Nc1ccccc1Cl` show?
## Result 109 % of control

## Task Item under review: CCOC(=O)CCC(C)(C#N)c1ccccc1 (stereo not given) . Reported T/C?
## Result 103 % of control

## Task Any idea what T/C was measured for CCCCN(CCCC)CC(O)c1cc2c(Cl)cc(Cl)cc2c2cc(C(F)(F)F)ccc12 (stereo not given) ?
## Result 97 % of control
